Cited source for all entries: patent US8350076B2

# tgt: Nav1.5 (Homo sapiens)
# Sequence (Q14524 whole entry): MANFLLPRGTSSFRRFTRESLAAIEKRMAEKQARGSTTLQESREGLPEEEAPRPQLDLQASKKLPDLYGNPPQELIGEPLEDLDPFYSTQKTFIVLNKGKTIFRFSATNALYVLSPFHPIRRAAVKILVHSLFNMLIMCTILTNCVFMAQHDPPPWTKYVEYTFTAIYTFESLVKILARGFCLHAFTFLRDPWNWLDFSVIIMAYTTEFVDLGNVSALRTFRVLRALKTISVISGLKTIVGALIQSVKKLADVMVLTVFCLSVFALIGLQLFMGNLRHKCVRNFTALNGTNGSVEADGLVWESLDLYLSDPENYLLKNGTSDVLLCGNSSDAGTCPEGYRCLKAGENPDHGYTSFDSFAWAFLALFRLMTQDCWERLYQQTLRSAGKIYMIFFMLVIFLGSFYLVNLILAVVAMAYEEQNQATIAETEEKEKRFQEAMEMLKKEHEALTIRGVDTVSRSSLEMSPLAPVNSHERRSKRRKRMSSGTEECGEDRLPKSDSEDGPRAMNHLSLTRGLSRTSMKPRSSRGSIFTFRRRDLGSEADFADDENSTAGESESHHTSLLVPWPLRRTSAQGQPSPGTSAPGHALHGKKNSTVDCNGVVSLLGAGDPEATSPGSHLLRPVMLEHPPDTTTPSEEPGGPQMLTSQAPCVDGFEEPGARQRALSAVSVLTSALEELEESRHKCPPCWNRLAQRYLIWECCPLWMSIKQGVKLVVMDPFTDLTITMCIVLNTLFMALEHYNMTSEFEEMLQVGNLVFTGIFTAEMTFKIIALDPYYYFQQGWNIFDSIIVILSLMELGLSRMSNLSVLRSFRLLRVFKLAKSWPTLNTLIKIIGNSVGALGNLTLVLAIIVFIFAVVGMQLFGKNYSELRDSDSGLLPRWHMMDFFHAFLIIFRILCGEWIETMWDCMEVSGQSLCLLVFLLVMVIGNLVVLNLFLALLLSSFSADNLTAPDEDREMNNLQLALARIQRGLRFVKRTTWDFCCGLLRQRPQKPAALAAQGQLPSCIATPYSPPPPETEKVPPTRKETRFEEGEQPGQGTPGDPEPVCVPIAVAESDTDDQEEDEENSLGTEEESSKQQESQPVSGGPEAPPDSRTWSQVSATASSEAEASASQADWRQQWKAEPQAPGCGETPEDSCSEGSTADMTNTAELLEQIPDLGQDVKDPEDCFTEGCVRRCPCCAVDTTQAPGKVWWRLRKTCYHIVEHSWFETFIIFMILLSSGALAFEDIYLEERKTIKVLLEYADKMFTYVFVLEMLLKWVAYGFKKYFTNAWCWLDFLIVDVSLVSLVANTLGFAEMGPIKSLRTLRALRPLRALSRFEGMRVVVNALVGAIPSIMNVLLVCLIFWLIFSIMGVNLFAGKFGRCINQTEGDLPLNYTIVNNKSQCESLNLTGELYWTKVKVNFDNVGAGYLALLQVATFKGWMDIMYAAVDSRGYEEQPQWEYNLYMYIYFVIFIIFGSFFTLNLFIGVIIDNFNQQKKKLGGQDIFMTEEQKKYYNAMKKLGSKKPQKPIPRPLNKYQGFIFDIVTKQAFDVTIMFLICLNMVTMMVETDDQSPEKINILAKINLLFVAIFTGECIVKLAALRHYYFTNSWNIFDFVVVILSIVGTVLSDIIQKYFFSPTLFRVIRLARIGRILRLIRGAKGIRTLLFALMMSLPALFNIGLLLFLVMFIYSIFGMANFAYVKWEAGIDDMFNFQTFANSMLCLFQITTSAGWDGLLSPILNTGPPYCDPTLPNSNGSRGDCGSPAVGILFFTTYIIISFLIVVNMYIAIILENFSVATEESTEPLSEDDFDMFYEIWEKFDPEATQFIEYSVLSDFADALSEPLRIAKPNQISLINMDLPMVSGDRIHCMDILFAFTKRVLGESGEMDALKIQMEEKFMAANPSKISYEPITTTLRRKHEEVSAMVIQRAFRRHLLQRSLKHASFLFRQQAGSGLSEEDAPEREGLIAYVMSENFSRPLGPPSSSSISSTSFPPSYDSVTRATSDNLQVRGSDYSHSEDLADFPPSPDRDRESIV
# protocol-notes: Electrophysiology, sodium currents in CHO cells stably expressing Nav1.5
Parameter pEC50: see the listing below.
Friendly reminder that pEC50 comes from taking -log10 of the concentration in mol/L.

1. CCCCCCCC(O)(C(N)=O)c1ccc(Cl)cc1 (stereo not shown) [Compound 2] :: 4.90
2. CCCCCCCC(O)(C(N)=O)c1ccc(F)cc1 (stereo not shown) [Compound 9] :: 4.47

Please look at the following compound next.
pEC50 of CCCCCCCC1(c2ccccc2)NC(=O)NC1=O (stereo not shown) [Compound 44] on Nav1.5 (Homo sapiens)?
4.53

###

Parameter IC50: see the listing below.
# Test system: PC-3M
# protocol-notes: Long-term growth assay (crystal violet), PC-3M
# Type: cell-based
# condition: Homo sapiens, 120 h, day 5, read-out: Day Five Effects on Cell line IC50 (μM) ± S.E.M., PC-3M
Give just the number in µM; leave the unit off.

The cases that follow already have their IC50 on record.
1. CCCCCCCC(O)(C(N)=O)c1ccc(Cl)cc1 (stereo not drawn) :: 50
2. CCCCCCCC(O)(C(N)=O)c1cccc(Cl)c1 (stereo not drawn) :: 61.9

Please look at the following compound next.
For the compound CCCCCCCC1(c2ccccc2)NC(=O)NC1=O (stereo not drawn) , what IC50 is on record?
58.4
